// reported viability, T/C for each item listed
test system: 997537-175-T-J1-PDC complex spheroid viability; assay: Anticancer human tumor 997537-175-T-J1-PDC patient-derived colon adenocarcinoma cell line growth inhibition [GQUAD]; details: second compound 0.1 µM; first compound 3.16 µM; stronger effect = lower value
property_label: viability, T/C (%)

compound="COc1cc(C2c3cc4c(cc3C(OC3OC5COC(C)OC5C(O)C3O)C3COC(=O)C23)OCO4)cc(OC)c1O (stereo unspecified) + Cc1[nH]c2ccc(F)cc2c1-c1nc2c3cccnc3c3ncccc3c2[nH]1" meas_value=90.8
compound="Nc1ccn(C2OC(CO)C(O)C2(F)F)c(=O)n1 (stereo unspecified) + CN(C)c1ccc(Nc2c3ccc(NC(=O)CCN4CCCC4)cc3nc3cc(NC(=O)CCN4CCCC4)ccc23)cc1" meas_value=88.3
compound="CC(C)n1c(=O)n(C)c2cnc3cc(F)c(-c4ccc(OCCCN5CCCCC5)nc4)cc3c21 + Cc1cnc(CNC(=O)c2c(=O)c3ccc(N4CCCN(C)CC4)nc3n3c2sc2ccccc23)cn1" meas_value=82.6
compound="CCCS(=O)(=O)Nc1ccc(F)c(C(=O)c2c[nH]c3ncc(-c4ccc(Cl)cc4)cc23)c1F + Cc1cnc(CNC(=O)c2c(=O)c3ccc(N4CCCN(C)CC4)nc3n3c2sc2ccccc23)cn1" meas_value=53.1
compound="COc1cccc2c1C(=O)c1c(O)c3c(c(O)c1C2=O)CC(O)(C(=O)CO)CC3OC1CC(N)C(O)C(C)O1 (stereo unspecified) + Cc1cnc(CNC(=O)c2c(=O)c3ccc(N4CCCN(C)CC4)nc3n3c2sc2ccccc23)cn1" meas_value=86.5
compound="COc1ccc([C@@H](O)c2cc(-c3ncnc4cc(N5CCOCC5)ccc34)c(F)cc2Cl)nn1 + Cc1[nH]c2ccc(F)cc2c1-c1nc2c3cccnc3c3ncccc3c2[nH]1" meas_value=106
compound="O=C(NO)c1cnc(N2CCN(S(=O)(=O)c3ccc4ccccc4c3)CC2)nc1 + Cc1cnc(CNC(=O)c2c(=O)c3ccc(N4CCCN(C)CC4)nc3n3c2sc2ccccc23)cn1" meas_value=41.7
compound="CC(=O)O[C@H]1C(=O)[C@@]2(C)[C@H]([C@H](OC(=O)c3ccccc3)[C@]3(O)C[C@H](OC(=O)[C@H](O)[C@@H](NC(=O)c4ccccc4)c4ccccc4)C(C)=C1C3(C)C)[C@]1(OC(C)=O)CO[C@@H]1C[C@@H]2O + Cc1cnc(CNC(=O)c2c(=O)c3ccc(N4CCCN(C)CC4)nc3n3c2sc2ccccc23)cn1" meas_value=21.3
compound="CC(C)(O)C1CCC(Nc2ccc3ncc(-c4cccc(C(F)(F)F)c4)n3n2)CC1 (stereo unspecified) + CN(C)c1ccc(Nc2c3ccc(NC(=O)CCN4CCCC4)cc3nc3cc(NC(=O)CCN4CCCC4)ccc23)cc1" meas_value=38.2
compound="O=c1[nH]cc(F)c(=O)[nH]1 + Cc1[nH]c2ccc(F)cc2c1-c1nc2c3cccnc3c3ncccc3c2[nH]1" meas_value=98.3
compound="C=CC(=O)N1CCN(c2nc(=O)n(-c3c(C)ccnc3C(C)C)c3nc(-c4c(O)cccc4F)c(F)cc23)C(C)C1 (stereo unspecified) + Cc1cnc(CNC(=O)c2c(=O)c3ccc(N4CCCN(C)CC4)nc3n3c2sc2ccccc23)cn1" meas_value=102

----------
tested on: 997537-175-T-J1-PDC complex spheroid viability; experiment: Anticancer human tumor 997537-175-T-J1-PDC cell line growth inhibition [GQUAD]; settings: curve of first compound; second compound 1 µM;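 note: spheroids exposed to the agents for 7 days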
Catalogue of molecules with associated log10 IC50
property_label: log10 IC50 (log10 of the value in µM)

molecule="COc1cccc2c1C(=O)c1c(O)c3c(c(O)c1C2=O)CC(O)(C(=O)CO)CC3OC1CC(N)C(O)C(C)O1 (stereo unspecified) + Cc1[nH]c2ccc(F)cc2c1-c1nc2c3cccnc3c3ncccc3c2[nH]1" meas_value=0.93
molecule="O=C(NO)c1cnc(N2CCN(S(=O)(=O)c3ccc4ccccc4c3)CC2)nc1 + Cc1[nH]c2ccc(F)cc2c1-c1nc2c3cccnc3c3ncccc3c2[nH]1" meas_value=-1.06
molecule="CCc1c2c(nc3ccc(O)cc13)-c1cc3c(c(=O)n1C2)COC(=O)[C@]3(O)CC + Cc1cnc(CNC(=O)c2c(=O)c3ccc(N4CCCN(C)CC4)nc3n3c2sc2ccccc23)cn1" meas_value=-2.12
molecule="O=C(NO)c1cnc(N2CCN(S(=O)(=O)c3ccc4ccccc4c3)CC2)nc1 + CN(C)c1ccc(Nc2c3ccc(NC(=O)CCN4CCCC4)cc3nc3cc(NC(=O)CCN4CCCC4)ccc23)cc1" meas_value=0.18
molecule="C=CCn1c(=O)c2cnc(Nc3ccc(N4CCN(C)CC4)cc3)nc2n1-c1cccc(C(C)(C)O)n1 + Cc1cnc(CNC(=O)c2c(=O)c3ccc(N4CCCN(C)CC4)nc3n3c2sc2ccccc23)cn1" meas_value=0.88
molecule="CCCS(=O)(=O)Nc1ccc(F)c(C(=O)c2c[nH]c3ncc(-c4ccc(Cl)cc4)cc23)c1F + CN(C)c1ccc(Nc2c3ccc(NC(=O)CCN4CCCC4)cc3nc3cc(NC(=O)CCN4CCCC4)ccc23)cc1" meas_value=0.67
molecule="CCc1c2c(nc3ccc(O)cc13)-c1cc3c(c(=O)n1C2)COC(=O)[C@]3(O)CC + CN(C)c1ccc(Nc2c3ccc(NC(=O)CCN4CCCC4)cc3nc3cc(NC(=O)CCN4CCCC4)ccc23)cc1" meas_value=-1.80
molecule="Nc1ccn(C2OC(CO)C(O)C2(F)F)c(=O)n1 (stereo unspecified) + CN(C)c1ccc(Nc2c3ccc(NC(=O)CCN4CCCC4)cc3nc3cc(NC(=O)CCN4CCCC4)ccc23)cc1" meas_value=0.97
molecule="CCCS(=O)(=O)Nc1ccc(F)c(C(=O)c2c[nH]c3ncc(-c4ccc(Cl)cc4)cc23)c1F + Cc1cnc(CNC(=O)c2c(=O)c3ccc(N4CCCN(C)CC4)nc3n3c2sc2ccccc23)cn1" meas_value=-0.13

FYI, the data here is from PubChem BioAssay AID2060487.
